Catalogue of compounds with associated relative viability EC50
Tested on: Caco-2
PROCEDURE_DETAILS: relative viability EC50 (midpoint between 100% and the lowest measured viability); higher = less toxic
ASSAY_CONDITIONS: 72 h
MEASURE: relative viability EC50

1) CC(CNC1CCCCC1)OC(=O)c1ccccc1 (stereo not given) [hexylcaine] | > 10 µM
2) COc1ccc(-c2cc(C(F)F)nn2-c2ccc(S(N)(=O)=O)cc2)cc1F [deracoxib] | > 10 µM
3) CC1Nc2ccc(Cl)cc2S(=O)(=O)N1 (stereo not given) [IDRA-21] | > 10 µM
4) Fc1cc(-c2cccc3ncc(-c4cnn(C5CCNCC5)c4)nc23)cc(F)c1CN1CCOCC1 [NVP-BSK805] | 3.55 µM
5) COCC(=O)O[C@]1(CCN(C)CCCc2nc3ccccc3[nH]2)CCc2cc(F)ccc2[C@@H]1C(C)C [mibefradil] | 1.61 µM
6) CCn1c(=O)c(-c2cc[nH]n2)cc2c(C)nc(N)nc21 [voxtalisib] | 1.61 µM
7) CCCNC(C)C(=O)Nc1c(C)csc1C(=O)OC (stereo not given) [articaine] | > 10 µM
8) Cc1c(C(=O)NCc2cccnc2)nn(-c2ccc(Cl)cc2Cl)c1-c1ccc(Cl)cc1 [MJ-15] | > 10 µM
9) Cc1[nH]cnc1CN1CCc2c(c3ccccc3n2C)C1=O [alosetron] | > 10 µM
10) CC(=O)Nc1ccc(OC(C)=O)cc1 [diacetamate] | > 10 µM
11) Nc1nc(-c2ccc(Cl)c(Cl)c2)c(-c2ccncc2)s1 [CGH2466] | > 10 µM
12) C[C@]12CC[C@@H](O)C[C@H]1CC[C@@H]1[C@@H]2CC[C@]2(C)C(=O)CC[C@@H]12 [3-alpha-hydroxy-5-beta-androstan-17-one] | > 10 µM
13) CC(COc1ccccc1Cc1ccccc1)N1CCCCC1 (stereo not given) [benproperine] | > 10 µM
14) O=c1[nH]c(=O)n([C@H]2C[C@H](O)[C@@H](CO)O2)cc1/C=C/Br [brivudine] | > 10 µM
15) O=S(=O)(O)Oc1ccc(C(c2ccc(OS(=O)(=O)O)cc2)c2ccccn2)cc1 [sodium-picosulfate] | > 10 µM
16) CCOC(=O)/C=C(C)/C=C/C=C(C)/C=C/c1c(C)cc(OC)c(C)c1C [etretinate] | > 10 µM
17) CC(C)C[C@H](NC(=O)OCc1ccccc1)C(=O)N[C@@H](C[C@@H]1CCNC1=O)C(O)S(=O)(=O)O (stereo not given in full) [GC376 sodium] | > 10 µM
18) CS(=O)(=O)N1CCc2c(-c3cnc(N)nc3)nc(N3CCOCC3)nc21 | 1.19 µM
19) O=S1(=O)OC(c2ccc(O)cc2)(c2ccc(O)cc2)c2ccccc21 [phenolsulfonphthalein] | > 10 µM
20) COCc1c(-c2ccc(NC(=O)Nc3cc(C(F)(F)F)ccc3F)c(F)c2)c2c(N)ncnn2c1CN1CCOCC1 [ACTB-1003] | 1.35 µM

###

System: HepG2
PROCEDURE_DETAILS: cell viability relative to DMSO; higher = less toxic
ASSAY_CONDITIONS: 72 h; 10000 nM
MEASURE: cell viability

1. C=C1CC/C=C(\C)CC[C@@H]2[C@@H]1CC2(C)C [g-caryophyllene] | 94.9%
2. CC1Nc2ccc(Cl)cc2S(=O)(=O)N1 (stereo unspecified) [IDRA-21] | 98%
3. CCN(CC)C(C)C(=O)c1ccccc1 (stereo unspecified) [amfepramone] | 101%
4. CS(=O)(=O)N1CCc2c(-c3cnc(N)nc3)nc(N3CCOCC3)nc21 | 33.3%
5. COC[C@H](NC(=O)c1cnc(C)s1)C(=O)N[C@@H](COC)C(=O)N[C@@H](Cc1ccccc1)C(=O)[C@@]1(C)CO1 [oprozomib] | -0.1%
6. CC(C)C[C@H](NC(=O)OCc1ccccc1)C(=O)N[C@@H](C[C@@H]1CCNC1=O)C(O)S(=O)(=O)O (stereo partly specified) [GC376 sodium] | 95.4%

###

Catalogue of compounds with associated cell viability
Test system: Vero E6
PROCEDURE_DETAILS: cell viability relative to DMSO; higher = less toxic
ASSAY_CONDITIONS: 72 h; 1 nM
MEASURE: cell viability (%)

1. C=C(C)[C@@H]1CCC(C)=C[C@H]1c1c(OC)cc(C)cc1OC | 106
2. CN1CCN(c2ccc(Nc3ncc4cc(C#N)c(=O)n(C5CCCC5)c4n3)cc2)CC1 | 105
3. COc1ccc(C2CC(c3ccccc3)=NN2c2ccc(S(N)(=O)=O)cc2)cc1 (stereo not given) | 112
4. CCN(CC)C(=O)Nc1ccc(OCC(O)CNC(C)(C)C)c(C(C)=O)c1 (stereo not given) | 103
5. CCN(CCO)CCCC(C)Nc1ccnc2cc(Cl)ccc12 (stereo not given) [hydroxychloroquine] | 101
6. CC(C)(CCCCCC(O)CCCCCC(C)(C)C(=O)O)C(=O)O | 106
7. CCCC(CCC)C(=O)NCC(N)=O [valrocemide] | 97.3
8. CN1C(=O)N(c2cc(Cl)cc(Cl)c2)C(=O)[C@@]1(C)Cc1ccc(Br)cc1 | 98.7
9. NCc1cc(O)no1 | 98.8
10. C=CCc1ccc(O)c(-c2ccc(O)c(CC=C)c2)c1 | 95.7
11. N#C/C(=C\c1ccc(O)c(O)c1)C(=O)NCCCc1ccccc1 | 102
12. COc1cc2c(cc1OC)[C@H](C)NCC2 [Isoquinoline,-6,7-dimethoxy-1-methyl-1,2,3,4-tetrahydro,] | 97.3
13. C[C@@H]1CN(CCCn2c3ccccc3c3ccccc32)C[C@H](C)N1 | 97.9
14. COc1cc(Cc2cnc(N)nc2N)cc(OC)c1OC | 99.8
15. CC[C@H](C)[C@H](N)C(=O)O | 92.1

###

Tested on: U2OS
PROCEDURE_DETAILS: cell viability relative to DMSO; higher = less toxic
ASSAY_CONDITIONS: 72 h; 100 nM
Counter-ions that a name gives are not always drawn.
MEASURE: cell viability (%)

1. CC[C@H]1OC(=O)C[C@@H](O)[C@H](C)[C@@H](O[C@@H]2O[C@H](C)[C@@H](O[C@H]3C[C@@](C)(O)[C@@H](O)[C@H](C)O3)[C@H](N(C)C)[C@H]2O)[C@@H](CC=O)C[C@@H](C)C(=O)/C=C/C(C)=C/[C@@H]1CO[C@@H]1O[C@H](C)[C@@H](O)[C@@H](OC)[C@H]1OC [TYLOSIN TARTRATE] | 96.9
2. COc1cc2c(cc1OC)[C@@H](Cc1cc(OC)c(OC)c(OC)c1)[N+](C)(CCCOC(=O)CC/C=C/CCC(=O)OCCC[N+]1(C)CCc3cc(OC)c(OC)cc3[C@H]1Cc1cc(OC)c(OC)c(OC)c1)CC2 (some centres undefined) [mivacurium] | 98.6
3. CC[C@H](C)C(=O)O[C@H]1C[C@H](O)C=C2C=C[C@H](C)[C@H](CC[C@@H](O)C[C@@H](O)CC(=O)O)[C@H]21 [PRAVASTATIN SODIUM] | 94.2
4. CC(C)NCC(O)COc1cccc2[nH]c3ccccc3c12 (centres undefined) [carazolol] | 102
5. COCC1=C(C(=O)O)N2C(=O)[C@@H](NC(=O)/C(=N\OC)c3csc(N)n3)[C@H]2SC1 [cefpodoxime] | 105
6. CCN1CCN(C(=O)Cc2ccc(Nc3ncc(F)c(Nc4ccc(C(=O)Nc5ccccc5Cl)cc4)n3)cc2)CC1 [aurora-a-inhibitor-i] | 99.2
7. CN1CC2c3ccccc3Oc3ccc(Cl)cc3C2C1 (centres undefined) [asenapine] | 101
8. CC(C)C[C@H](NC(=O)OCc1ccccc1)C(=O)N[C@@H](C[C@@H]1CCNC1=O)C(O)S(=O)(=O)O (some centres undefined) [GC376 sodium] | 97.3
9. O=C(O)c1cc(O)c2c3nc4ccccc4oc-3cc(=O)c2n1 [pirenoxine] | 102

###

Catalogue of compounds with associated cell viability
Tested on: Caco-2
PROCEDURE_DETAILS: cell viability relative to DMSO; higher = less toxic
ASSAY_CONDITIONS: 72 h; 100 nM
MEASURE: cell viability (%)

1) O=C(OC[C@H]1O[C@@H](OC(=O)c2cc(O)c(O)c(OC(=O)c3cc(O)c(O)c(O)c3)c2)[C@H](OC(=O)c2cc(O)c(O)c(OC(=O)c3cc(O)c(O)c(O)c3)c2)[C@@H](OC(=O)c2cc(O)c(O)c(OC(=O)c3cc(O)c(O)c(O)c3)c2)[C@@H]1OC(=O)c1cc(O)c(O)c(OC(=O)c2cc(O)c(O)c(O)c2)c1)c1cc(O)c(O)c(OC(=O)c2cc(O)c(O)c(O)c2)c1 | 90.5
2) COCC(=O)O[C@]1(CCN(C)CCCc2nc3ccccc3[nH]2)CCc2cc(F)ccc2[C@@H]1C(C)C | 101
3) CCCCCCCCCCCCCCCC(=O)OC(C)C [isopropyl-palmitate] | 109
4) OCCN1CCN(CCCN2c3ccccc3C=Cc3ccccc32)CC1 | 88.6
5) CC(=O)O[C@@H]1C[C@H]2C(C)(C)C(=O)C=C[C@]2(C)[C@H]2CC[C@@]3(C)[C@H](c4ccoc4)OC(=O)[C@H]4O[C@]43[C@@]21C | 102
6) Oc1ccc(Cl)cc1Cc1cc(Cl)ccc1O | 108
7) CN(C)C/C=C/C(=O)Nc1ccc(C(=O)Nc2cccc(Nc3ncc(Cl)c(-c4c[nH]c5ccccc45)n3)c2)cc1 | 88.9
8) N#Cc1cnc2cnc(NCc3cccnc3)cc2c1Nc1ccc(F)c(Cl)c1 | 91.1
9) CC(C)c1cc(-c2ccc(F)c3ccccc23)nc(N)n1 | 102
10) Cc1cc(OI)c(C(C)C)cc1-c1cc(C(C)C)c(OI)cc1C [thymol-iodide] | 103
11) COc1cc(NC(=O)c2cccc(-n3cc(NC(=O)Nc4cccc(C)c4)cn3)c2)cc(OC)c1OC | 101
12) CC(NC(=O)c1ccccc1/N=C/c1c(O)ccc2ccccc12)c1ccccc1 (stereo unspecified) | 101
13) CN1CCN(Cc2ccc(-c3cnc4[nH]cc(-c5ccc6[nH]ccc6c5)c4c3)cc2)CC1 | 104
14) CN1C(=O)N(c2cc(Cl)cc(Cl)c2)C(=O)[C@@]1(C)Cc1ccc(Br)cc1 | 97.9
15) CC(=O)Nc1ccc(OC(C)=O)cc1 [diacetamate] | 94.7
16) CN1Cc2c(N)cccc2C(c2ccccc2)C1 (stereo unspecified) | 98
17) COc1cc(N2CCC(N3CCN(C)CC3)CC2)ccc1Nc1ncc(Cl)c(Nc2ccccc2P(C)(C)=O)n1 | 92.8
18) CCCCC#Cc1nc(NC)c2ncn([C@@H]3O[C@H](CO)[C@@H](O)[C@H]3O)c2n1 | 102
19) Nc1nc(-c2ccc(Cl)c(Cl)c2)c(-c2ccncc2)s1 | 102
20) CC(=O)NS(=O)(=O)c1ccc(NC(=O)c2ccccc2C(=O)O)cc1 [phthalylsulfacetamide] | 94.2
21) CCN(CCO)CCCC(C)Nc1ccnc2cc(Cl)ccc12 (stereo unspecified) [hydroxychloroquine] | 100
